- system-under-test: Sulfhydryl oxidase 1 (Homo sapiens)
- assay: QSOX1 enzyme inhibitors, primary screen, biochemical, ROS-Glo H2O2 luminescence, HTS (AID 1347418)
- measurement-parameters: recombinant QSOX1, ROS-Glo H2O2 luminescence; at 12.5 µM; stronger effect = higher value; active = any value above zero
About 750 (58%) of roughly 1,300 compounds were called active. The list shows a part of the results.
Hi there, I'd appreciate the recorded inhibition for every entry that follows.
Give just the number in %; leave the unit off.

Indicate its recorded inhibition; the compound in question is "COc1cc(/C=C(\C#N)C(=O)Nc2nnc(C(F)(F)F)s2)ccc1OCc1ccc(C(F)(F)F)cc1C(F)(F)F"
0.8

Give reported inhibition value for "CCN(CC)CCNC(=O)c1cc(S(C)(=O)=O)ccc1OC"
-3.2

Give inhibition for the following compound: Oc1cc2c(c(Cl)c1O)CCNCC2c1ccccc1 (stereo unspecified)
24.1

Assign inhibition to the following record: Oc1ccc(C2CNCCc3c2cc(O)c(O)c3Cl)cc1 (stereo unspecified)
30

Please list inhibition recorded for the compound "CC(=O)N[C@@H](Cc1c[nH]c2ccccc12)C(=O)OCc1cc(C(F)(F)F)cc(C(F)(F)F)c1"
2

Look up and state reported inhibition for COc1cc(C(O)CO)ccc1OS(=O)(=O)O (stereo unspecified)
0.6

Kindly indicate its recorded inhibition. Item: "CCCCCCCCCCCCCCCC(=O)NCCO"
-1.3

Output measured inhibition for this item: "COc1cc2c(c(OC)c1OC)-c1ccc(OC)c(=O)cc1[C@@H](NC(C)=O)CC2"
1.3

Please supply the value of reported inhibition for the item COc1cc(C(O)CO)ccc1O (stereo unspecified)
4.8

Identify measured inhibition associated with "CC(=O)O[C@]1(C(C)=O)CC[C@H]2[C@@H]3C=C(Cl)C4=CC(=O)[C@@H]5C[C@@H]5[C@]4(C)[C@H]3CC[C@@]21C"
6.1

Look up and report measured inhibition for this entry: "COc1ccccc1CNCCCCCCNCCCCCCCCNCCCCCCCNc1ccccc1OC"
1.8
